- System: LXRa homodimer (NR concentration 270 nM)
- METHOD_DESCRIPTION: PBM binding z-score (relative to random genomic background probes); higher = stronger binding; sequences stand for … in GC…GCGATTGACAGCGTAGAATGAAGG
Please respond with reported PBM binding z-score for every item in the list.
Quick one: just the number, no unit, thanks!

// recorded PBM binding z-score for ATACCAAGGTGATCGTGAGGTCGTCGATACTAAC : 0.311

// PBM binding z-score value for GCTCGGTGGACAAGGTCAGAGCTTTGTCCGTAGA : -0.446

Recorded PBM binding z-score (sequence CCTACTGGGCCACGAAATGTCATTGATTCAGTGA ): -0.34

Field PBM binding z-score (entry CCGACTGGGCCAAGGTTACCATAACGCACAGCCA ) reads -0.181

Entry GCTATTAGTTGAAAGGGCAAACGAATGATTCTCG , PBM binding z-score reported as 0.494

Data point: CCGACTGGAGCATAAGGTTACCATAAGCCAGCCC ; PBM binding z-score = 0.131

###

- Test system: PPARg DBDmut IVT, anti-PPARg (DBD mutation: PPARg1 K132A/R137A, NR concentration 270 nM)
- METHOD_DESCRIPTION: PBM binding z-score (relative to random genomic background probes); higher = stronger binding; sequences stand for … in GC…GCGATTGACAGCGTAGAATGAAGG
Please enter true (1) where PBM binding z-score is greater than or equal to -0.007, and false (0) where it is lower.

query: Determine whether this sequence has PBM binding z-score no lower than -0.007: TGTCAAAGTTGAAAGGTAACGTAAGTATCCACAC
result: true (1)

query: Record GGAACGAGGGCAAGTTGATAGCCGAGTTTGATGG ; criterion: PBM binding z-score no lower than -0.007. Met?
result: false (0)

query: Reported PBM binding z-score reaches at least -0.007 for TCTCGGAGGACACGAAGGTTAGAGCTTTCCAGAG ?
result: false (0)

query: Does PBM binding z-score meet or surpass -0.007 for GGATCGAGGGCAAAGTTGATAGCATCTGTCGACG ?
result: true (1)

query: Identify whether the reported PBM binding z-score of the following sequence is -0.007 or greater: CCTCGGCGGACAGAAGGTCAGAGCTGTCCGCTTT
result: false (0)

query: Check this sequence for PBM binding z-score at or above -0.007: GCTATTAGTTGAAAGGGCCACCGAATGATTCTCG
result: false (0)

query: Identify whether the reported PBM binding z-score of the following sequence is -0.007 or greater: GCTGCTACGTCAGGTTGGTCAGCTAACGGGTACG
result: false (0)

query: Determine whether measured PBM binding z-score meets or exceeds -0.007 for CAAACTAGGTCACAGAGGTCATAGTCCGTGCGTA
result: true (1)

query: Has TCTCGGAGGACAAGAAAGGTCAGAGCTCGACATC a recorded PBM binding z-score greater than or equal to -0.007?
result: false (0)

query: Does the sequence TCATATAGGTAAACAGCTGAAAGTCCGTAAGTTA have recorded PBM binding z-score that is -0.007 or more?
result: true (1)

query: Please indicate if the recorded PBM binding z-score for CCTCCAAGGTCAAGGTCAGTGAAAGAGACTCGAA meets or exceeds -0.007.
result: false (0)

query: Answer whether PBM binding z-score of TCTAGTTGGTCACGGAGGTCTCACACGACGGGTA is greater than or equal to -0.007.
result: true (1)

query: Check if PBM binding z-score >= -0.007 (inclusive). Item: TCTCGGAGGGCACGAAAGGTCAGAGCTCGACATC
result: false (0)

query: Does the sequence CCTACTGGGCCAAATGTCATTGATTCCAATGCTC have recorded PBM binding z-score that is -0.007 or more?
result: true (1)

query: Could you tell me if the measured PBM binding z-score of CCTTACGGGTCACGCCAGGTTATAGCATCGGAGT reaches -0.007 or more?
result: true (1)

query: Is PBM binding z-score at least -0.007? Consider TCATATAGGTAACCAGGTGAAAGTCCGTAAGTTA
result: true (1)

query: Determine whether this sequence has PBM binding z-score no lower than -0.007: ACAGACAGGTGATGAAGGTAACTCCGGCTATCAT
result: true (1)

query: hey, is PBM binding z-score for this one >= -0.007? CCTATTAGTTGACCATAAGGGCAACCTAAGCTCG
result: true (1)

query: # bool: PBM binding z-score of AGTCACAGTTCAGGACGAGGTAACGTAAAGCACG >= -0.007
result: true (1)

query: hey, is PBM binding z-score for this one >= -0.007? CCTGCTAGGTGAATGGTCAGCTAAAGCAGCTCGC
result: false (0)

query: I'd appreciate it if you could say whether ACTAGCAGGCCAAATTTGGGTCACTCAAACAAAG has PBM binding z-score at least equal to -0.007.
result: true (1)

query: Tell me whether PBM binding z-score is at least -0.007 here: ATCGAAAGGTCGTGAGGTTAGTATACAGAAAGGC
result: true (1)

query: Textbook exercise: given the entry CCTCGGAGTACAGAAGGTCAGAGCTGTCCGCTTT , state whether its PBM binding z-score is greater than or equal to -0.007.
result: false (0)

query: Record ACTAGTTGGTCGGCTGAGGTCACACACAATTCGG ; criterion: PBM binding z-score no lower than -0.007. Met?
result: true (1)

query: Hello, I need to know if ATATGTAGGTTAGCTGGTGTCATTCAGACTAGGC has measured PBM binding z-score not below -0.007. Thanks!
result: true (1)

###

- Test system: PPARg:RXRa (NR concentration 180 nM, RXRa partner concentration 90 nM)
- METHOD_DESCRIPTION: PBM binding z-score (relative to random genomic background probes); higher = stronger binding; sequences stand for … in GC…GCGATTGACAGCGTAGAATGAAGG
// label = fulfilled if PBM binding z-score is not less than 2, otherwise not fulfilled

query: Does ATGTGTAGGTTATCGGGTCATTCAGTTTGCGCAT have a reported PBM binding z-score of at least 2?
result: fulfilled

query: Does the reported PBM binding z-score for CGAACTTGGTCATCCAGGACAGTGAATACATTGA fall at or above the 2 mark?
result: not fulfilled

query: Check this sequence for PBM binding z-score at or above 2: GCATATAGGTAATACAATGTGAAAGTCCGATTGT
result: not fulfilled

query: API: above_or_equal(metric=PBM binding z-score, cutoff=2) for item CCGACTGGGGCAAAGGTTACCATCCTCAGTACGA
result: fulfilled

query: Determine whether this sequence has PBM binding z-score no lower than 2: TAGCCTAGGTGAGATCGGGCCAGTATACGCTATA
result: not fulfilled

query: Identify whether the reported PBM binding z-score of the following sequence is 2 or greater: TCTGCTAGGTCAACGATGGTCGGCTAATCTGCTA
result: fulfilled

query: Please indicate if the recorded PBM binding z-score for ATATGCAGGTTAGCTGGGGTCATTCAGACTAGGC meets or exceeds 2.
result: fulfilled

query: Given the entry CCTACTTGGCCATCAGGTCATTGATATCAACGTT , answer whether its PBM binding z-score meets or surpasses 2.
result: not fulfilled

query: Would you say CGTCAGAGTTCAAGGTAACGTAACAGAAAGCAGC shows PBM binding z-score at minimum 2?
result: fulfilled

query: PBM binding z-score >= 2 for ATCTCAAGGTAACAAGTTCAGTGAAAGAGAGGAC ?
result: not fulfilled

query: Determine whether this sequence has PBM binding z-score no lower than 2: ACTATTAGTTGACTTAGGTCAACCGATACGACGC
result: not fulfilled

query: Quick check: does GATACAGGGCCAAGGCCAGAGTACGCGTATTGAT have PBM binding z-score greater than or equal to 2?
result: not fulfilled

###

Exercise: state measured PBM binding z-score for each of the sequences provided.
- System: FXR:RXRa (NR concentration 270 nM, RXRa partner concentration 90 nM)
- METHOD_DESCRIPTION: PBM binding z-score (relative to random genomic background probes); higher = stronger binding; sequences stand for … in GC…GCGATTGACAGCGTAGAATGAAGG
Reply with just the number.

The sequence GCTTGTAGATCAAGGTTAGGAAAGACTAAGCTAA , tested on FXR:RXRa (NR concentration 270 nM, RXRa partner concentration 90 nM), showed PBM binding z-score of -0.51

Assay FXR:RXRa (NR concentration 270 nM, RXRa partner concentration 90 nM), sample AGAATGAGGTTAAGCTCAGGGAAACAGAATACAT , PBM binding z-score read: 2.88

// PBM binding z-score (FXR:RXRa (NR concentration 270 nM, RXRa partner concentration 90 nM)) for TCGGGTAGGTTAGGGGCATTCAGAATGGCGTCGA = 1.49

Field PBM binding z-score (system: FXR:RXRa (NR concentration 270 nM, RXRa partner concentration 90 nM)) for entry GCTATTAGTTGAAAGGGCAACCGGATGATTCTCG = 0.785

Item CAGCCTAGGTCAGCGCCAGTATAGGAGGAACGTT was tested on FXR:RXRa (NR concentration 270 nM, RXRa partner concentration 90 nM); the reported PBM binding z-score is 1.62

For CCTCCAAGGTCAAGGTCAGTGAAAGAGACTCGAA on FXR:RXRa (NR concentration 270 nM, RXRa partner concentration 90 nM), measured PBM binding z-score was 7.8
